Assay metric: Ki

Ask: Provide Ki, recorded with 5-HT2B (Homo sapiens), of Clc1nnc2ccc(Oc3ccccc3-c3ccccc3)nn12 [STL1267]
Sequence (P41595 whole entry, species assumed): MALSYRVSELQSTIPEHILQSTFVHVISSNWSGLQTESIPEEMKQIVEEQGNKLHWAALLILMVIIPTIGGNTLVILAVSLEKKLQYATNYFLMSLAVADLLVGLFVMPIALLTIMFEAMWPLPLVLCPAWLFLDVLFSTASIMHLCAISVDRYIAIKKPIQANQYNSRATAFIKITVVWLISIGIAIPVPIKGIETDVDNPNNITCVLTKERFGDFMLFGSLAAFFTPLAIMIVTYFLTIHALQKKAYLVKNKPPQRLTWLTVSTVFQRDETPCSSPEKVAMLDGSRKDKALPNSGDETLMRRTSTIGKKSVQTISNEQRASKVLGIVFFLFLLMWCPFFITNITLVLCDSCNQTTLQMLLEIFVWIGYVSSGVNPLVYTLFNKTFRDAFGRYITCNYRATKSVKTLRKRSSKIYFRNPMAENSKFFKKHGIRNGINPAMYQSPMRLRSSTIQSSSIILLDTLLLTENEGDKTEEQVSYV
Reply: > 10 µM

###

Target protein (sequence): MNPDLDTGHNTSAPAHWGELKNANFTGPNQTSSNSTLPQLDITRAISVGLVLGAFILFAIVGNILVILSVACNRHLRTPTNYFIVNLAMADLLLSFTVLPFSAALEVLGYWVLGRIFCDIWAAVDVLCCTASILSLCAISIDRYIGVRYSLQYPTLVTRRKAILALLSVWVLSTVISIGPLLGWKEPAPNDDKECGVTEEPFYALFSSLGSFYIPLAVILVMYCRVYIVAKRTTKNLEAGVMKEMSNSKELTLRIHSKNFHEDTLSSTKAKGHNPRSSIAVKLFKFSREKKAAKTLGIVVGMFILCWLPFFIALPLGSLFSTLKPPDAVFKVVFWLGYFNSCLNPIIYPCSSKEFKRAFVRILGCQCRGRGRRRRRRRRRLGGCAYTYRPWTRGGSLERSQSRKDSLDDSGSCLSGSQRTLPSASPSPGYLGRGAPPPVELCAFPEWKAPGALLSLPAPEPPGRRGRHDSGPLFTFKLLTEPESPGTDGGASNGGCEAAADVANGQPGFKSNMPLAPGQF
pKi: −log10 of the molar value.
Assay metric: pKi

Ask: Entry Clc1nnc2ccc(Oc3ccccc3-c3ccccc3)nn12 [STL1267] needs its pKi filled in; supply it.
Reply: < 5.00

###

Assay metric: Ki

Ask: Provide Ki, recorded with Alpha1A (Homo sapiens, UniProt P35348), of Clc1nnc2ccc(Oc3ccccc3-c3ccccc3)nn12 [STL1267]
Sequence (P35348 whole entry): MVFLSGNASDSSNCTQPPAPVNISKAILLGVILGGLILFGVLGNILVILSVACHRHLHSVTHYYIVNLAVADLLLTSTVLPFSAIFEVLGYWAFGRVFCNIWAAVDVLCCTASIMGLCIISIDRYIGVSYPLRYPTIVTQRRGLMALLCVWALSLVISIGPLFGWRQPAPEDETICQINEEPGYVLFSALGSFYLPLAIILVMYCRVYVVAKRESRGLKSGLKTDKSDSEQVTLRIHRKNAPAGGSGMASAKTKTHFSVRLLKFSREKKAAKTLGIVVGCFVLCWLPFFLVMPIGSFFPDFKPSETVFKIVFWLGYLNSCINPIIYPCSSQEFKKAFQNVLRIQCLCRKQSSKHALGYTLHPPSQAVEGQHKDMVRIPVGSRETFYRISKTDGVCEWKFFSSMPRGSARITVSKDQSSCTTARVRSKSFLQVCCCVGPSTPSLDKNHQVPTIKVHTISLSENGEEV
Reply: > 10 µM

###

target: PBR (Rattus norvegicus)
pKi: −log10 of the molar value.
Assay metric: pKi

Ask: Entry Clc1nnc2ccc(Oc3ccccc3-c3ccccc3)nn12 needs its pKi filled in; supply it.
Reply: < 5.00

###

biological target: Beta2 (Homo sapiens, UniProt P07550)
Sequence (P07550 whole entry): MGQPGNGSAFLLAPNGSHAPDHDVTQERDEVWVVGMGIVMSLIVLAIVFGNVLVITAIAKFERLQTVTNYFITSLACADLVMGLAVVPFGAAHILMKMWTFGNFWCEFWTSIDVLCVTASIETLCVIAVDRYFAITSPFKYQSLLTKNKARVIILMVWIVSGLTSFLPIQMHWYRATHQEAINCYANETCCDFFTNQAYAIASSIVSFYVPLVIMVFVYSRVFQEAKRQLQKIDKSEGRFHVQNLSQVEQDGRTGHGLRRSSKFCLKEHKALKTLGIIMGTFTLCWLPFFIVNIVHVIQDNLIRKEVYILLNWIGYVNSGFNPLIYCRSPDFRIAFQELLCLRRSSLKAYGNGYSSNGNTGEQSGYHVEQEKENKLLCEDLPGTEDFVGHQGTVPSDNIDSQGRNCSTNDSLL
pKi: −log10 of the molar value.
Assay metric: pKi

Ask: Entry Clc1nnc2ccc(Oc3ccccc3-c3ccccc3)nn12 [STL1267] needs its pKi filled in; supply it.
Reply: < 5.00

###

biological target: GABAA; assay: PDSP radioligand binding assay; settings: read-out: RLBA Ki
Assay metric: Ki

Ask: Entry Clc1nnc2ccc(Oc3ccccc3-c3ccccc3)nn12 [STL1267] needs its Ki filled in; supply it.
Reply: > 10 µM

###

target: D2 (Homo sapiens); assay: PDSP radioligand binding assay; conditions: read-out: RLBA Ki
Sequence (P14416 whole entry): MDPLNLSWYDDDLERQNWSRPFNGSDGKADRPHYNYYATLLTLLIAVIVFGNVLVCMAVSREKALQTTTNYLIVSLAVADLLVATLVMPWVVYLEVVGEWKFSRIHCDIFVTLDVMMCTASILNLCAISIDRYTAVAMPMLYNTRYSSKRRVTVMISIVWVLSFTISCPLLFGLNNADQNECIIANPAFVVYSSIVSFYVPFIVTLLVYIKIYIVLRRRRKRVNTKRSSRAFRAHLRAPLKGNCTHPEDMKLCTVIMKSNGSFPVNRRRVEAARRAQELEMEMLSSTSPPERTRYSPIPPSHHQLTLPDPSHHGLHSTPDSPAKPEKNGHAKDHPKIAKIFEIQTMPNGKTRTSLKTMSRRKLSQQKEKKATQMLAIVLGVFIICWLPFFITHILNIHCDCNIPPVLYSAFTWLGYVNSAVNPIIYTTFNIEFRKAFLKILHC
Assay metric: Ki

Ask: Entry Clc1nnc2ccc(Oc3ccccc3-c3ccccc3)nn12 needs its Ki filled in; supply it.
Reply: > 10 µM

###

Assay metric: Ki

Ask: Provide Ki, recorded with Beta3 (Homo sapiens), of Clc1nnc2ccc(Oc3ccccc3-c3ccccc3)nn12
Sequence (P13945 whole entry): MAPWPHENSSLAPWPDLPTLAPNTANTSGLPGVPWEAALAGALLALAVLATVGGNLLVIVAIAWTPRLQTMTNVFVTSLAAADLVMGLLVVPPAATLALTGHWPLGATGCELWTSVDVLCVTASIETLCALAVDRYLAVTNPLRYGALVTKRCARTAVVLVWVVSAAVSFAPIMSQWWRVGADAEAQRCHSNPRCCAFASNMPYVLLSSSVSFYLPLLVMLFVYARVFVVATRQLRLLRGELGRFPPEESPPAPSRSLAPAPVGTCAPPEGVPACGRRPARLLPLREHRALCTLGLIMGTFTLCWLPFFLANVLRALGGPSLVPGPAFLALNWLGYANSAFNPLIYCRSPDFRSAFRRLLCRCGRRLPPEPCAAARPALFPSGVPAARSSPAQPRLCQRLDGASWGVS
Reply: > 10 µM

###

Target protein (sequence): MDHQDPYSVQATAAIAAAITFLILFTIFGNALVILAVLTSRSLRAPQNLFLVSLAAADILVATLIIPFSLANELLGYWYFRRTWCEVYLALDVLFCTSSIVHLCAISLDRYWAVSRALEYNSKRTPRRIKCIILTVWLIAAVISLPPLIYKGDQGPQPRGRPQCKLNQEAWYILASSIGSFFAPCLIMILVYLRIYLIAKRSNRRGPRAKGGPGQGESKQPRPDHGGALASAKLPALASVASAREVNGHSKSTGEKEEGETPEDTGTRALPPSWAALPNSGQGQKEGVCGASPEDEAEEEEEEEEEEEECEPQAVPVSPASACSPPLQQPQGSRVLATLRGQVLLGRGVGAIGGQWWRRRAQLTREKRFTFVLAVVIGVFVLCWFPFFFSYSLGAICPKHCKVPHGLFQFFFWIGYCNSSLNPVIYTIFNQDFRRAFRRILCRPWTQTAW
pKi: −log10 of the molar value.
Assay metric: pKi

Ask: Entry Clc1nnc2ccc(Oc3ccccc3-c3ccccc3)nn12 [STL1267] needs its pKi filled in; supply it.
Reply: < 5.00

###

pKi: −log10 of the molar value.
Assay metric: pKi

Ask: Provide pKi, recorded with NET (Homo sapiens), of Clc1nnc2ccc(Oc3ccccc3-c3ccccc3)nn12
Sequence (P23975 whole entry): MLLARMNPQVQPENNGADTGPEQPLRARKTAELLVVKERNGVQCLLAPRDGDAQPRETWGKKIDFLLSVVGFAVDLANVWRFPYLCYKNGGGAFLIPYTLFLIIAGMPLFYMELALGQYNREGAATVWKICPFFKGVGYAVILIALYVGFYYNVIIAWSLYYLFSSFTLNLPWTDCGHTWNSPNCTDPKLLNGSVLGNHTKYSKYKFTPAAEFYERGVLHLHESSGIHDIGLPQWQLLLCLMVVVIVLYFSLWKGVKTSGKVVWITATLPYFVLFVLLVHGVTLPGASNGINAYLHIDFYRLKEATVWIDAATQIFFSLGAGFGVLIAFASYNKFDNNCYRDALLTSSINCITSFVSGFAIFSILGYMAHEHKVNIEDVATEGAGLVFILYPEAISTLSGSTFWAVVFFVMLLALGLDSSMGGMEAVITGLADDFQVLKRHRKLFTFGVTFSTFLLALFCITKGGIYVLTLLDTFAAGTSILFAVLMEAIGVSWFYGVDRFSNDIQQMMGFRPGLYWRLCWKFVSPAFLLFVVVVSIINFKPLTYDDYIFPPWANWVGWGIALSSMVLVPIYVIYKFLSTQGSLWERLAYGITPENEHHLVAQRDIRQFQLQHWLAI
Reply: < 5.00

###

Target protein (sequence): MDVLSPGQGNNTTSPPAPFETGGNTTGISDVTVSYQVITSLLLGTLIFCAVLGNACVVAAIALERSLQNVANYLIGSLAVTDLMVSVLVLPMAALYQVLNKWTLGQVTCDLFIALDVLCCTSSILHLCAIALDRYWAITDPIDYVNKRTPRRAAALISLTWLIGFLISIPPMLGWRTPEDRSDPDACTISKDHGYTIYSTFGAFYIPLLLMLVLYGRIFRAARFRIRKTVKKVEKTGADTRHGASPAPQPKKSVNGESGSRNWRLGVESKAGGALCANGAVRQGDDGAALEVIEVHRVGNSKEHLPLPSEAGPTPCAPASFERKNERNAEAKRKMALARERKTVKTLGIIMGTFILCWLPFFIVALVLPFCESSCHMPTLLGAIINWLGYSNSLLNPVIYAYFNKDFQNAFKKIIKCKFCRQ
Assay metric: Ki

Ask: Entry Clc1nnc2ccc(Oc3ccccc3-c3ccccc3)nn12 needs its Ki filled in; supply it.
Reply: > 10 µM

###

test: tissue exposure following i.p. administration; assay type: in vivo, C57Bl/6 J mice; details: male, C57Bl/6J, mouse, plasma, ip; mice, 50 mg/kg intraperitoneal injection
Assay metric: half-life

Ask: Entry Clc1nnc2ccc(Oc3ccccc3-c3ccccc3)nn12 needs its half-life filled in; supply it.
Reply: ~1.6 h
